Origin of measurements: patent US10875874B2

Experiment: physchem
Details: water, thermodynamic from solid
ASSAY READOUT: solubility (µg/mL)
Express the result in µg/mL but write the number alone.

Consider Cc1nc(C)c(CO[C@H]2C(=O)O[C@H]3O[C@]45C(=O)OC6C[C@@H](C(C)(C)C)C32[C@@]64[C@@H](O)[C@@H]2OC(=O)[C@@H](C)[C@@]25O)nc1C (stereo partly shown) [BM] . Its measured solubility is 250

* * *

Assay: Weekly food intake of SHR rats
Format: in vivo, rat
Conditions: 60 mg/kg/d intragastric, week 5
Marks after values point to notes of the source that are not given here.
ASSAY READOUT: Average dairy food intake

// Average dairy food intake lookup, molecule = CC(=O)Oc1ccccc1C(=O)O[C@H]1C(=O)O[C@H]2O[C@]34C(=O)OC5C[C@@H](C(C)(C)C)C21[C@@]53[C@@H](O)[C@@H]1OC(=O)[C@@H](C)[C@@]14O (stereo partly drawn) , result: 20.7^▴▴ g/d

// Cc1nc(C)c(C(=O)O[C@H]2C(=O)O[C@H]3O[C@]45C(=O)OC6C[C@@H](C(C)(C)C)C32[C@@]64[C@@H](O)[C@@H]2OC(=O)[C@@H](C)[C@@]25O)nc1C (stereo partly drawn) : Average dairy food intake value = 21.7^▴▴ g/d

Further cases:
Note to self: Average dairy food intake recorded for Cc1nc(C)c(CO[C@H]2C(=O)O[C@H]3O[C@]45C(=O)OC6C[C@@H](C(C)(C)C)C32[C@@]64[C@@H](O)[C@@H]2OC(=O)[C@@H](C)[C@@]25O)nc1C (stereo partly drawn) was 22.4^▴▴ g/d

For CCCCC(OC(C)=O)c1ccccc1C(=O)O[C@H]1C(=O)O[C@H]2O[C@]34C(=O)OC5C[C@@H](C(C)(C)C)C21[C@@]53[C@@H](O)[C@@H]1OC(=O)[C@@H](C)[C@@]14O (stereo partly drawn) the molecule record lists Average dairy food intake as 21.3^▴▴ g/d

Lab note: measured Average dairy food intake of C[C@@H]1C(=O)O[C@H]2[C@H](O)[C@@]34C5C[C@@H](C(C)(C)C)C36[C@@H](OC(=O)[C@@H]6OC(=O)[C@H](c3ccccc3Cl)N3CCc6sccc6C3)O[C@@]4(C(=O)O5)[C@@]12O (stereo partly drawn) was 21.9^▴▴ g/d

Average dairy food intake reading for CC1C(=O)OC2C(O)C34C5CC(C(C)(C)C)C36C(OC(=O)C6O)OC4(C(=O)O5)C12O (stereo not drawn) [GB, ginkgolide B] : 21.7^▴▴ g/d

* * *

Reported Body weight values are given for each entry in this list.
Experiment: Weekly body weight of SHR rats
Assay type: in vivo, rat
Conditions: 120 mg/kg/d intragastric, week 6
Marks after values point to notes of the source that are not given here.

Notebook: CCCCC(OC(C)=O)c1ccccc1C(=O)O[C@H]1C(=O)O[C@H]2O[C@]34C(=O)OC5C[C@@H](C(C)(C)C)C21[C@@]53[C@@H](O)[C@@H]1OC(=O)[C@@H](C)[C@@]14O (stereo partly drawn) , Body weight read as 291.0^▴▴ g

* * *

Here, each record is paired with measured solubility data.
Assay: Water solubility test
Settings: purified water, thermodynamic from solid
Kindly provide the numeric value in µg/mL only, without the unit symbol.

solubility recorded for this compound, C[C@@H]1C(=O)O[C@H]2[C@H](O)[C@@]34C5C[C@@H](C(C)(C)C)C36[C@@H](OC(=O)[C@@H]6OC(=O)[C@H](c3ccccc3Cl)N3CCc6sccc6C3)O[C@@]4(C(=O)O5)[C@@]12O (stereo partly shown) , is 200

Lab book: solubility of Cc1nc(C)c(C(=O)O[C@H]2C(=O)O[C@H]3O[C@]45C(=O)OC6C[C@@H](C(C)(C)C)C32[C@@]64[C@@H](O)[C@@H]2OC(=O)[C@@H](C)[C@@]25O)nc1C (stereo partly shown) noted as 300

# solubility of CC(=O)Oc1ccccc1C(=O)O[C@H]1C(=O)O[C@H]2O[C@]34C(=O)OC5C[C@@H](C(C)(C)C)C21[C@@]53[C@@H](O)[C@@H]1OC(=O)[C@@H](C)[C@@]14O (stereo partly shown) = 220

The reported solubility of the compound CCCCC(OC(C)=O)c1ccccc1C(=O)O[C@H]1C(=O)O[C@H]2O[C@]34C(=O)OC5C[C@@H](C(C)(C)C)C21[C@@]53[C@@H](O)[C@@H]1OC(=O)[C@@H](C)[C@@]14O (stereo partly shown) was 250

* * *

Examples of compounds with documented Systolic pressure follow.
Test system: spontaneously hypertensive rats (SHR)
Experiment: Caudal artery systolic pressure of spontaneously hypertensive rats, single administration
Format: in vivo, rat
Conditions: 120 mg/kg intragastric single administration, before administration, x ± s, n = 8
Respond with the bare value in mmHg.

Before answering, review these 2 worked examples.
Just so you know, measured Systolic pressure for Cc1nc(C)c(CO[C@H]2C(=O)O[C@H]3O[C@]45C(=O)OC6C[C@@H](C(C)(C)C)C32[C@@]64[C@@H](O)[C@@H]2OC(=O)[C@@H](C)[C@@]25O)nc1C (stereo partly drawn) came out at 163.45

CC(=O)Oc1ccccc1C(=O)O[C@H]1C(=O)O[C@H]2O[C@]34C(=O)OC5C[C@@H](C(C)(C)C)C21[C@@]53[C@@H](O)[C@@H]1OC(=O)[C@@H](C)[C@@]14O (stereo partly drawn) yielded Systolic pressure of 163.64

Please look at the following compound next.
The recorded Systolic pressure for CCCCC(OC(C)=O)c1ccccc1C(=O)O[C@H]1C(=O)O[C@H]2O[C@]34C(=O)OC5C[C@@H](C(C)(C)C)C21[C@@]53[C@@H](O)[C@@H]1OC(=O)[C@@H](C)[C@@]14O (stereo partly drawn) is 164.57

* * *

Tested on: spontaneously hypertensive rats (SHR)
Assay: Caudal artery systolic pressure of spontaneously hypertensive rats, single administration
Type: in vivo, rat
Details: 120 mg/kg intragastric single administration, 120 min, x ± s, n = 8
As shown below, each of these compounds has a reported Systolic pressure value.
The reply should be a number in mmHg, with the unit left off.

Please review the following examples before continuing.
So for Cc1nc(C)c(C(=O)O[C@H]2C(=O)O[C@H]3O[C@]45C(=O)OC6C[C@@H](C(C)(C)C)C32[C@@]64[C@@H](O)[C@@H]2OC(=O)[C@@H](C)[C@@]25O)nc1C (stereo partly drawn) , the logged Systolic pressure turned out to be 169.36

C[C@@H]1C(=O)O[C@H]2[C@H](O)[C@@]34C5C[C@@H](C(C)(C)C)C36[C@@H](OC(=O)[C@@H]6OC(=O)[C@H](c3ccccc3Cl)N3CCc6sccc6C3)O[C@@]4(C(=O)O5)[C@@]12O (stereo partly drawn) yielded Systolic pressure of 151.98

Others:
Quick note, Systolic pressure for CCCCC(OC(C)=O)c1ccccc1C(=O)O[C@H]1C(=O)O[C@H]2O[C@]34C(=O)OC5C[C@@H](C(C)(C)C)C21[C@@]53[C@@H](O)[C@@H]1OC(=O)[C@@H](C)[C@@]14O (stereo partly drawn) landed at 160.49

* * *

Test: Weekly body weight of SHR rats
Type: in vivo, rat
Conditions: 120 mg/kg/d intragastric, week 0
ASSAY READOUT: Body weight (g)
Give the number; g is assumed, so skip it.

For orientation, consider the following solved cases.
Reported Body weight for CC1C(=O)OC2C(O)C34C5CC(C(C)(C)C)C36C(OC(=O)C6O)OC4(C(=O)O5)C12O (stereo not drawn) [GB, ginkgolide B] was 231.0

// recorded Body weight for C[C@@H]1C(=O)O[C@H]2[C@H](O)[C@@]34C5C[C@@H](C(C)(C)C)C36[C@@H](OC(=O)[C@@H]6OC(=O)[C@H](c3ccccc3Cl)N3CCc6sccc6C3)O[C@@]4(C(=O)O5)[C@@]12O (stereo partly drawn) : 230.6

According to the records, this compound Cc1nc(C)c(CO[C@H]2C(=O)O[C@H]3O[C@]45C(=O)OC6C[C@@H](C(C)(C)C)C32[C@@]64[C@@H](O)[C@@H]2OC(=O)[C@@H](C)[C@@]25O)nc1C (stereo partly drawn) displays Body weight of 233.4

Please fill in: Body weight reported for CC(=O)Oc1ccccc1C(=O)O[C@H]1C(=O)O[C@H]2O[C@]34C(=O)OC5C[C@@H](C(C)(C)C)C21[C@@]53[C@@H](O)[C@@H]1OC(=O)[C@@H](C)[C@@]14O (stereo partly drawn) = 231.6

Value of Body weight reported for the compound CCCCC(OC(C)=O)c1ccccc1C(=O)O[C@H]1C(=O)O[C@H]2O[C@]34C(=O)OC5C[C@@H](C(C)(C)C)C21[C@@]53[C@@H](O)[C@@H]1OC(=O)[C@@H](C)[C@@]14O (stereo partly drawn) is 230.9

We next turn to a different compound, shown below.
Per the records, this compound ( Cc1nc(C)c(C(=O)O[C@H]2C(=O)O[C@H]3O[C@]45C(=O)OC6C[C@@H](C(C)(C)C)C32[C@@]64[C@@H](O)[C@@H]2OC(=O)[C@@H](C)[C@@]25O)nc1C (stereo partly drawn) ) has Body weight equal to 268.9
